Tested on: isolated mouse liver mitochondria, Ca2+ swelling, A540 20 min
ASSAY PROTOCOL: mitochondrial swelling inhibition, absorbance readout – dry powder samples, uHTS hits, dose response (AID 743359)
Calls of active or inactive are those of the source.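 Rule for the calls: active = compounds whose half-maximal inhibitory concentration IC50 is 20 µM or lower; inactive = the rest.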
// one of active, inactive, no free text

structure_as_smiles=COc1ccc(Cl)cc1C(=O)Nc1ccc(CCN2CCN(C(=O)OC(C)(C)C)CC2)cc1 label_value=active
structure_as_smiles=COc1cccc(-c2cc(C(=O)Nc3cc(Cl)ccc3C)no2)c1 label_value=inactive
structure_as_smiles=COc1ccc(Cl)cc1C(=O)Nc1ccc(CN2CCCCC2)cc1 label_value=active
structure_as_smiles=CN1CCN(CCc2ccc(NC(=O)c3cccc(OCc4ccccc4)c3)cc2)CC1 label_value=active
structure_as_smiles=CN1CCN(c2ccccc2NC(=O)c2ccc(OCc3ccccc3)cc2)CC1 label_value=active
structure_as_smiles=COc1ccc(Cl)cc1C(=O)Nc1ccc(N2CCOCC2)cc1 label_value=inactive
structure_as_smiles=O=C(Nc1ccc(CN2CCCCC2)cc1)c1ccc(Cl)c(OCc2ccccc2)c1 label_value=active
structure_as_smiles=COc1ccc(Cl)cc1C(=O)Nc1ccc(N(C)C)cc1 label_value=active

Name the outcome recorded for O=S(=O)(Nc1ccc(CCN2CCCCC2)cc1)c1cccc(Cl)c1 in the assay.
inactive

What is the recorded call for this compound in the test? COc1ccc(Cl)cc1S(=O)(=O)Nc1ccc(N2CCN(C)CC2)cc1
inactive

# lookup: test call for CC1CCN(CCCC(=O)c2ccc(Br)cc2)CC1
inactive
